Assay: chemical genetic growth profiling, strain panel (AID 1159580);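 also: tested at 20 µM; growth read once vehicle control cultures reached saturation at 30 °C; 1 = growth at the plate median or of vehicle wells; lower values mean less growth of the strain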
Conditions: S. cerevisiae deletion strains, growth OD, locus YDR195W, strain ref2
The campaign covered roughly 5,500 compounds. About 2,000 (36%) were called active. About 18% were inconclusive and are not listed. Rule as the data show it: active = normalized growth mostly below about 0.91 (no sharp cut-off); inconclusive = no clear call, values can overlap the other calls; inactive = mostly above about 0.92. This is one part of the list.
Thanks in advance; please answer with one of these: true (1) (active), false (0) (inactive)

Use these answered entries as a reference point.
Molecule | Category label
O=c1cc(-c2ccccc2)oc2cc(O)c(O)c(O)c12 | true (1)
O=c1[nH]cnc2[nH]ncc12 | false (0)
COc1c2ccoc2nc2c(OC)c(OCC(O)C(C)(C)O)ccc12 (stereo not given) | false (0)

# lookup: test call for `O=[N+]([O-])c1cccc2cn[nH]c12`
false (0)

# lookup: test call for CN[C@@H]1[C@H](OC2[C@H](O[C@H]3[C@H](O)[C@@H](O)[C@H](N=C(N)N)[C@@H](O)[C@@H]3N=C(N)N)O[C@@H](C)[C@]2(O)C=O)O[C@@H](CO)[C@H](O)[C@H]1O (stereo not given in full)
false (0)

---

Experiment: chemical genetic growth profiling, strain panel (AID 1159580)
Details: S. cerevisiae deletion strains, growth OD, locus YFR010W, strain ubp6, active compounds read low
The campaign covered roughly 5,500 compounds. About 2,000 (36%) were called active. Another 18% or so got no clear call; they are omitted. The list shows a part of the results.
Reported property: normalized growth
The reply should be a number, written without any unit.

Compound | normalized growth
N#C/C(=C\c1cccc(O)c1)C(=O)O | 1.01
CCOC(=O)[C@H](CCc1ccccc1)N[C@@H](C)C(=O)N1Cc2ccccc2C[C@H]1C(=O)O | 0.998
CCCCS(=N)(=O)CCC(N)C(=O)O (stereo unspecified) | 0.999
C=Cc1c(C)c2[n-]c1=Cc1[n-]c(c(CC)c1C)C=c1[n-]c3c(c1C)C(=O)C(C(=O)[O-])C=3c1[n-]c(c(C)c1CCC(=O)[O-])C=2.[Cu] (stereo unspecified) | 1.1
CC(=O)OCC(=O)[C@@]1(O)[C@H](OC(C)=O)CC2C3CCC4=CC(=O)C=C[C@]4(C)[C@@]3(F)[C@@H](O)C[C@@]21C (stereo partly specified) | 0.983
Cc1cc(=O)oc2c(O)c(O)ccc12 | 0.947

For the compound `CCCC(CCC)C(=O)O` , give its measured normalized growth value.
1.02

For the compound `CN(C(=O)CN(CCO)CC(=O)N(C)C(C)(C)Cc1ccccc1)C(C)(C)Cc1ccccc1` , give its measured normalized growth value.
1.01

For the compound `CCN(CCCc1ccccc1)CCCc1ccccc1` , give its measured normalized growth value.
0.98

For the compound `NNCCc1ccccc1` , give its measured normalized growth value.
0.989

For the compound CN(C)CCOC(=O)C(c1ccccc1)C1(O)CCCC1 (stereo unspecified) , give its measured normalized growth value.
0.962

---

Each entry below lists one item and its recorded normalized growth value.
Experiment: chemical genetic growth profiling, strain panel (AID 1159580)
Conditions: S. cerevisiae deletion strains, growth OD, locus YGL078C, strain dbp3, active compounds read low
The whole screen tested about 5,500 compounds, of which about 2,000 (36%) were called active. Inconclusive results (about 18%) are left out. The list shows a part of the results.
The reply should be a number, written without any unit.

// known answers, use as guide
Compound | normalized growth
COc1cc2c(cc1-c1cc3cc4ccoc4cc3oc1=O)OCO2 | 0.997
CN1CC(CNC(=O)OCc2ccccc2)CC2c3cccc4c3c(cn4C)CC21 (configuration not stated) | 0.995
C=C1C2CC[C@@]3(C)[C@H](c4ccoc4)OC(=O)C[C@]13O[C@H]1CC(O)C(C)(C)C(CC(=O)OC)[C@@]21C (some centres not stated) | 1.02

For the compound `CCCC(CCC)C(=O)O` , give its measured normalized growth value.
0.963

For the compound CN[C@@H]1[C@H](OC2[C@H](O[C@H]3[C@H](O)[C@@H](O)[C@H](N=C(N)N)[C@@H](O)[C@@H]3N=C(N)N)O[C@@H](C)[C@]2(O)C=O)O[C@@H](CO)[C@H](O)[C@H]1O (some centres not stated) , give its measured normalized growth value.
1

For the compound CC1(C)C(O)CC(O)C2(C)C1CC(O)C1(C)C2CCC2(C)C(c3ccoc3)OC(=O)C3OC321 (configuration not stated) , give its measured normalized growth value.
1.03

For the compound `COc1cc2c(cc1/C=C/C(=O)c1cc(OC)c(OC)cc1OC)OCO2` , give its measured normalized growth value.
0.997

For the compound `N[C@@H]1[C@@H](O)[C@H](O)[C@@H](CO)O[C@H]1O` , give its measured normalized growth value.
1.01

---

Test: chemical genetic growth profiling, strain panel (AID 1159580);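 also: tested at 20 µM; growth read once vehicle control cultures reached saturation at 30 °C; 1 = growth at the plate median or of vehicle wells; lower values mean less growth of the strain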
Conditions: S. cerevisiae deletion strains, growth OD, locus YKL068W, active compounds read low
Among all 5,500 compounds or so, about 2,000 (36%) were called active. About 18% were inconclusive and are not listed. The list shows a part of the results.
Each entry below lists one item and its recorded normalized growth value.
The reply should be a number, written without any unit.

Molecule | normalized growth
COC(=O)c1c(C)cc(OC(=O)c2c(C)cc(O)c(C=O)c2O)c(C)c1O | 1.03
COc1cc(C)c(C(=O)Oc2cc(C)c(C(=O)O)c(O)c2C)c(OC)c1C | 1
COC(=O)c1c(C)cc(OC(=O)c2c(C)c(Cl)c(O)c(C=O)c2O)c(C)c1O | 0.984
O=C(O)CCCOc1ccc(Cl)cc1Cl | 0.986
COC(=O)CCCOc1ccc(Cl)cc1Cl | 0.98
CCCCSP(=O)(SCCCC)SCCCC | 1.01
CNC(=O)Oc1ccc2c(c1)[C@]1(C)CCN(C)[C@@H]1N2C | 0.999
CN(C)CCOC(=O)C(c1ccccc1)C1(O)CCCC1 (stereo unspecified) | 1.01
CN(C)CCOC(=O)COc1ccc(Cl)cc1 | 1
NCC(CC(=O)O)c1ccc(Cl)cc1 (stereo unspecified) | 1.01

For the molecule `COc1ccc(C(=O)CC(=O)c2ccc(C(C)(C)C)cc2)cc1` , give its measured normalized growth value.
0.996

---

Test: chemical genetic growth profiling, strain panel (AID 1159580);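 also: tested at 20 µM; growth read once vehicle control cultures reached saturation at 30 °C; 1 = growth at the plate median or of vehicle wells; lower values mean less growth of the strain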
Conditions: S. cerevisiae deletion strains, growth OD, locus YLR102C, strain apc9, active compounds read low
The campaign covered roughly 5,500 compounds. About 2,000 (36%) were called active. Roughly 18% stayed inconclusive and do not appear here. Some of the results follow.
Reported property: normalized growth
The reply should be a number, written without any unit.

Molecule | normalized growth
Cc1nc2sccn2c(=O)c1CCN1CCC(=C(c2ccc(F)cc2)c2ccc(F)cc2)CC1 | 0.999
Cc1nc2ccccn2c(=O)c1CCN1CCC(C(=O)c2ccc(F)cc2)CC1 | 0.993
C=C1C2CCC3(C)C(c4ccoc4)OC(=O)CC13OC1CC(OC(C)=O)C(C)(C)C(CC(=O)OC)C12C (stereo not drawn) | 1.01
CCCCCC1C(=O)CCC1CC(=O)O (stereo not drawn) | 0.978
C=C1C2CC[C@@]3(C)[C@H](c4ccoc4)OC(=O)C[C@]13O[C@H]1CC(O)C(C)(C)C(CC(=O)OC)[C@@]21C (stereo partly drawn) | 1.01
C=C1[C@H]2CC[C@@]3(C)[C@H](c4ccoc4)OC(=O)C[C@]13O[C@H]1C[C@H](O)C(C)(C)[C@H](CC(=O)OC)[C@]12C | 1.01
C[C@@H]1O[C@@H](O[C@H]2C[C@@H](O)[C@]3(CO)C4C(CC[C@]3(O)C2)[C@@]2(O)CC[C@H](C3=CC(=O)OC3)[C@@]2(C)C[C@H]4O)[C@H](O)[C@H](O)[C@H]1O (stereo partly drawn) | 0.997

Now consider the entry below.
For the molecule C=C1C2=CC(=O)O[C@@H](c3ccoc3)[C@]2(C)CCC1[C@@]1(C)C=CC(=O)C(C)(C)[C@@H]1CC(=O)OC (stereo partly drawn) , give its measured normalized growth value.
1

---

Test: chemical genetic growth profiling, strain panel (AID 1159580);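 also: tested at 20 µM; growth read once vehicle control cultures reached saturation at 30 °C; 1 = growth at the plate median or of vehicle wells; lower values mean less growth of the strain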
Conditions: S. cerevisiae deletion strains, growth OD, strain wtn01, active compounds read low
About 2,000 (36%) of roughly 5,500 compounds were called active. Roughly 18% stayed inconclusive and do not appear here. The list shows a part of the results. Where a SMILES comes first, the peptide text is derived from it.
Please assign a class to every record based on measured normalized growth, with ranges group A = under 0.9, group B = from 0.9 up to 1, group C = 1 and over

Compound | Category label
Nc1cc(-c2ccncc2)c[nH]c1=O | group A

// return the class label for `O=c1cc(-c2ccccc2)oc2cc(O)c(O)c(O)c12`
group A

// return the class label for `O=C(O)Cc1cc(I)c(Oc2cc(I)c(O)c(I)c2)c(I)c1`
group B

// return the class label for NC(Cc1ccc(F)cc1)C(=O)O (stereo not given)
group C

// return the class label for CC(CCC(=O)O)[C@H]1CCC2C3CC[C@@H]4C[C@H](O)CC[C@]4(C)C3CC[C@@]21C (stereo not given in full)
group B

// return the class label for `COc1cc(OC)c2c3c1C(=O)c1c(OC)cc(C)c4c(OC)cc(c-3c14)C(C)(C)C2=O`
group B

// return the class label for NCCCCC(N)C(=O)NC(Cc1ccc(O)cc1)C(=O)NC(CCCCN)C(=O)O (stereo not drawn) (H-Lys-Tyr-Lys-OH; configuration not given here)
group C

// return the class label for CSc1ccc2c(c1)N(CCC1CCCCN1C)c1ccccc1S2 (stereo not given)
group A

// return the class label for `Nc1ccncc1`
group B

// return the class label for NC(N)=NCCCC(NC(=O)C(N)Cc1ccc(O)cc1)C(=O)O (stereo not given)
group B
